Test system: RPMI-8226 leukemia
Assay: NCI tumour cell line growth inhibition, 48 h
metric: TGI (µM)
Answers are plain numbers, in µM.

{"compound-string": "O=C(Nc1cccc(-n2ccc3c(NC(=O)c4ccccc4)nccc32)c1)c1cccc(C(F)(F)F)c1", "TGI, µM": 1.17}

Which value of TGI has been reported for CCOc1ccc(S(=O)(=O)/N=C2\C=C(SCC(=O)O)C(=O)c3ccccc32)cc1 in the records? 13.2

====

System: T-47D breast
Assay: NCI tumour cell line growth inhibition, 48 h
Assignment: determine reported GI50 for the given molecules.

These recorded examples may help you get a feel for the data.
{"compound-string": "Brc1cccc(-c2cc(-c3ccc4c(c3)OCCO4)[nH]n2)c1", "tested-on": "T-47D breast", "GI50": "1.34 µM"}
{"compound-string": "O=C(Nc1nc2ccccc2s1)OCC(F)(F)F", "tested-on": "T-47D breast", "GI50": "> 100 µM"}
{"compound-string": "COc1cccc(/C=C/C(=O)c2cc3c(N)c(C(=O)Nc4ccccc4C)sc3nc2C)c1", "tested-on": "T-47D breast", "GI50": "1.15 µM"}
{"compound-string": "COc1cc(-n2cc(-c3ccc(Cl)c(Cl)c3)nc2SCc2ccccc2)cc(OC)c1OC", "tested-on": "T-47D breast", "GI50": "> 100 µM"}
{"compound-string": "CCOc1ccc(S(=O)(=O)/N=C2\\C=C(SCC(=O)O)C(=O)c3ccccc32)cc1", "tested-on": "T-47D breast", "GI50": "2.72 µM"}

I have 3 molecules here; please give me GI50 for each one.
1. C=CC(=O)N[C@H]1C=C(C)c2c(-c3cnc4ccccc4c3)c3c(N)ncnc3n2C1
2. CCn1c(-c2nonc2N)nc2c(C#CCN)ncc(OCCCN)c21
3. CNC(=O)c1ccccc1CC1(O)c2ccccc2Oc2ccccc21

1: 2.22 µM; 2: > 25 µM; 3: 21.5 µM

Give one value of GI50 per listed molecule.
1. CN1CCN(CC#Cc2cccc(C(=O)c3cnn(-c4ccc(F)cc4)c3N)c2)CC1
2. O=C(c1cccs1)c1c(C(F)(F)F)n([O-])c2ccccc2[n+]1=O

1. > 25 µM
2. 4.38 µM

Report GI50 for each item below.
1. O=C(/C=C/c1ccc(Cl)cc1)c1ccc(Cl)cc1Cl
2. CC1(C)N=C(N)N=C(N)N1c1ccc(CCCCc2ccc(S(=O)(=O)F)cc2)cc1

1: 3.25 µM; 2: 2.09 µM

Data provenance is PubChem BioAssay (NCI).
